# maps each entry to its inhibition at 0.1 µM
- SYSTEM_TESTED: human recombinant serotonin (5-Hydroxytryptamine) 5-HT6 receptor (Homo sapiens)
- Construct: expressed in transfected cells; host or cells: human HeLa cells
- Sequence (P50406 whole entry): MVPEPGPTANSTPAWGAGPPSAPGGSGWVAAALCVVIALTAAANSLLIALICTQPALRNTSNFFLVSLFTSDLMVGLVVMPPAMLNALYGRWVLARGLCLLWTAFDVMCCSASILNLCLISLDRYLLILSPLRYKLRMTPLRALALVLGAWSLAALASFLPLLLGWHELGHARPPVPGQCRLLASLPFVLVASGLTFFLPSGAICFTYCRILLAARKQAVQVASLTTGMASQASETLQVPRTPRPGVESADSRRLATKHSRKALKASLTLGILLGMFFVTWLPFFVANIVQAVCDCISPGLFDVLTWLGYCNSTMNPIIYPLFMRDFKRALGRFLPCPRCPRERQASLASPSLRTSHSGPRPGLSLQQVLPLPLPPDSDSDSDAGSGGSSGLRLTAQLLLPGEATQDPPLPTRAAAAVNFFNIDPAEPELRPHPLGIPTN
- PROTOCOL_TEXT: Serotonin 5-HT6 radioligand binding ([3H]LSD)
- EXPERIMENTAL_CONDITIONS: compound at 0.1 μM; read-out: Inhibition of ligand binding, Serotonin 5-HT6 (percent inhibition of specific binding)
- Description: Compounds of the invention were incubated with 1.5 nM [3H]Lysergic acid diethylamide (LSD) for 120 min. at 37° C. […] Receptor proteins were filtered and washed, the filters were then counted to determine [3H]LSD specifically bound. Compounds were screened at 1 μM or lower, using 1% DMSO as vehicle. Biochemical assay results are presented as the percent inhibition of specific binding in Table 10.
Give your result in % as a bare value.

Lab note: C/C(=C\n1c2c(c3cccc(Cl)c31)CN(C)CC2)c1ccc(C)nc1 gave inhibition at 0.1 µM of 9

src = patent US8906925B2
